# System: c-myc in 22RV-1 cells
# assay protocol: Human c-myc ELISA assay
# Format: cell-based
# protocol conditions: Homo sapiens, 22Rv1, 18 h, read-out: Degradation of BRD4: Maximum inhibition (%) c-Myc ELISA in 22RV1 cells
Exercise: state measured Emax for each of the molecules provided.
Give a bare numeral; the unit % is implied.

Looking up Cc1ncsc1-c1ccc(CNC(=O)[C@@H]2C[C@@H](O)CN2C(=O)[C@H](c2cnn(CCCOCCNC(=O)C[C@@H]3N=C(c4ccc(Cl)cc4)c4c(sc(C)c4C)-n4c(C)nnc43)c2)C(C)C)cc1 [Example 145] , I see its Emax listed as 15.9

Sample Cc1ncsc1-c1ccc(CNC(=O)[C@@H]2C[C@@H](O)CN2C(=O)[C@@H](c2cc(OCCN3CC[C@H](NC(=O)C[C@@H]4N=C(c5ccc(Cl)cc5)c5c(sc(C)c5C)-n5c(C)nnc54)C3)no2)C(C)C)cc1 [Example 310] ; Emax observed: 94

So for Cc1ncsc1-c1ccc(CNC(=O)[C@@H]2C[C@@H](O)CN2C(=O)[C@@H](NC(=O)COCCCSCCNC(=O)C[C@@H]2N=C(c3ccc(Cl)cc3)c3c(sc(C)c3C)-n3c(C)nnc32)C(C)(C)C)cc1 [Example 100] , the logged Emax turned out to be 99

Kindly note the recorded Emax for Cc1sc2c(c1C)C(c1ccc(Cl)cc1)=N[C@@H](CC(=O)N[C@H]1C[C@H](Oc3ccc(CC(=O)N[C@H](C(=O)N4C[C@H](O)C[C@H]4C(=O)N[C@@H](C)c4ccc(-c5ncon5)cc4)C(C)(C)C)cc3)C1)c1nnc(C)n1-2 [Example 281] , which is 91.4

For record Cc1ncsc1-c1ccc(CNC(=O)[C@@H]2C[C@@H](O)CN2C(=O)[C@H](C(C)C)n2cc(Oc3ccc(CNC(=O)C[C@@H]4N=C(c5ccc(Cl)cc5)c5c(sc(C)c5C)-n5c(C)nnc54)cc3)cn2)cc1 [Example 238] the listed Emax is 93.3

Please fill in: Emax reported for Cc1ncsc1-c1ccc([C@H](C)NC(=O)[C@@H]2C[C@@H](O)CN2C(=O)[C@@H](NC(=O)Cc2ccc(O[C@H]3C[C@H](NC(=O)C[C@@H]4N=C(c5ccc(Cl)cc5)c5c(sc(C)c5C)-n5c(C)nnc54)C3)cc2F)C(C)(C)C)cc1 [Example 249] = 98.5

Value of Emax reported for the molecule Cc1ncsc1-c1ccc(CNC(=O)[C@@H]2C[C@H](O)CN2C(=O)[C@@H](NC(=O)COCCCOCCNC(=O)C[C@@H]2N=C(c3ccc(Cl)cc3)c3c(sc(C)c3C)-n3c(C)nnc32)C(C)(C)C)cc1 [Example 73] is 21.4

Value of measured Emax for the entry Cc1ncsc1-c1ccc(CNC(=O)[C@@H]2C[C@@H](O)CN2C(=O)[C@@H](C(C)C)n2cc(-c3ccnc(O[C@H](C)CNC(=O)C[C@@H]4N=C(c5ccc(Cl)cc5)c5c(sc(C)c5C)-n5c(C)nnc54)c3)cn2)cc1 [Example 167] : 27.6

The recorded Emax for entry Cc1ncsc1-c1ccc(CNC(=O)[C@@H]2C[C@@H](O)CN2C(=O)[C@@H](NC(=O)COCCCOCCNC(=O)CC2N=C(c3ccc(Cl)cc3)c3c(sc(C)c3C)-n3c(C)nnc32)C(C)(C)C)cc1 (some centres unmarked) [Example 105] equals 97

Notebook: Cc1ncsc1-c1ccc([C@H](C)NC(=O)[C@@H]2C[C@@H](O)CN2C(=O)[C@@H](C(C)C)n2cc(-c3cc(O[C@H]4C[C@H](NC(=O)C[C@@H]5N=C(c6ccc(Cl)cc6)c6c(sc(C)c6C)-n6c(C)nnc65)C4)ccn3)cn2)cc1 [Example 305] , Emax read as 6.7

Lookup result for Cc1ncsc1-c1ccc(CNC(=O)[C@@H]2C[C@@H](O)CN2C(=O)[C@@H](NC(=O)COCCCOCCCCCNC(=O)C[C@@H]2N=C(c3ccc(Cl)cc3)c3c(sc(C)c3C)-n3c(C)nnc32)C(C)(C)C)cc1 [Example 50] ; measured Emax: 98

Emax for Cc1ncsc1-c1ccc([C@H](C)NC(=O)[C@@H]2C[C@@H](O)CN2C(=O)[C@H](C(C)C)n2cc(-c3ccc(N4CC(NC(=O)C[C@@H]5N=C(c6ccc(Cl)cc6)c6c(sc(C)c6C)-n6c(C)nnc65)C4)nc3)cn2)cc1 [Example 265] is 95.9

Emax measured on Cc1ncsc1-c1ccc([C@H](C)NC(=O)[C@@H]2C[C@H](O)CN2C(=O)[C@@H](NC(=O)COCCCOCCNC(=O)C[C@@H]2N=C(c3ccc(Cl)cc3)c3c(sc(C)c3C)-n3c(C)nnc32)C(C)(C)C)cc1 [Example 71] = 11.2

Notebook: Cc1ncsc1-c1ccc([C@H](C)NC(=O)[C@@H]2C[C@@H](O)CN2C(=O)[C@@H](NC(=O)COc2cccc(OCCNC(=O)C[C@@H]3N=C(c4ccc(Cl)cc4)c4c(sc(C)c4C)-n4c(C)nnc43)c2)C(C)(C)C)cc1 [Example 127] , Emax read as 99

Entry Cc1ncsc1-c1ccc(CNC(=O)[C@@H]2C[C@@H](O)CN2C(=O)C(c2cc(OCCCCCNC(=O)C[C@@H]3N=C(c4ccc(Cl)cc4)c4c(sc(C)c4C)-n4c(C)nnc43)no2)C(C)C)cc1 (some centres unmarked) [Example 90] , Emax reported as 100

Recorded result, Cc1ncsc1-c1ccc(CNC(=O)[C@@H]2C[C@@H](O)CN2C(=O)[C@H](C(C)C)n2cc(-c3ccnc(O[C@H]4C[C@H](NC(=O)C[C@@H]5N=C(c6ccc(Cl)cc6)c6c(sc(C)c6C)-n6c(C)nnc65)C4)c3)cn2)cc1 [Example 226] , Emax: 99

* * *

# Test system: c-myc in 22RV-1 cells
# assay protocol: Human c-myc ELISA assay
# Format: cell-based
# protocol conditions: Homo sapiens, 22Rv1, 18 h, read-out: Degradation of BRD4: Maximum inhibition (%) c-Myc ELISA in 22RV1 cells
reported metric: Emax (%)
Express it in %; write the number only.

Considering Cc1ncsc1-c1ccc([C@H](C)NC(=O)[C@@H]2C[C@@H](O)CN2C(=O)[C@H](C(C)C)n2cc(-c3ccnc(N4CC[C@H](NC(=O)C[C@@H]5N=C(c6ccc(Cl)cc6)c6c(sc(C)c6C)-n6c(C)nnc65)C4)c3)cn2)cc1 [Example 264] , its Emax with c-myc in 22RV-1 cells was recorded as 97

# Cc1ncsc1-c1ccc([C@H](C)NC(=O)[C@@H]2C[C@@H](O)CN2C(=O)[C@@H](NC(=O)COC[C@H](O)CN2CCN(C(=O)C[C@@H]3N=C(c4ccc(Cl)cc4)c4c(sc(C)c4C)-n4c(C)nnc43)CC2)C(C)(C)C)cc1 [Example 328] with c-myc in 22RV-1 cells: Emax is 61

// returns Emax for Cc1ncsc1-c1ccc([C@H](C)NC(=O)[C@@H]2C[C@@H](O)CN2C(=O)[C@@H](C(C)C)n2cc(-c3ccnc(N4CCN(C(=O)C[C@@H]5N=C(c6ccc(Cl)cc6)c6c(sc(C)c6C)-n6c(C)nnc65)CC4)c3)cn2)cc1 [Example 323] with c-myc in 22RV-1 cells; value = 43

Observed Emax on c-myc in 22RV-1 cells, entry Cc1ncsc1-c1ccc([C@H](C)NC(=O)[C@@H]2C[C@@H](O)CN2C(=O)[C@@H](NC(=O)/C=C/c2cccc(OCCNC(=O)C[C@@H]3N=C(c4ccc(Cl)cc4)c4c(sc(C)c4C)-n4c(C)nnc43)c2)C(C)(C)C)cc1 [Example 122] , equals 100

* * *

Give Emax for every item shown.
# Tested on: c-myc in 22RV-1 cells
# assay protocol: Human c-myc ELISA assay
# Type: cell-based
# protocol conditions: Homo sapiens, 22Rv1, 18 h, read-out: Degradation of BRD4: Maximum inhibition (%) c-Myc ELISA in 22RV1 cells

Lab note: Cc1ncsc1-c1ccc([C@H](C)NC(=O)[C@@H]2C[C@@H](O)CN2C(=O)[C@@H](NC(=O)COCCCOC2CN(C(=O)C[C@@H]3N=C(c4ccc(Cl)cc4)c4c(sc(C)c4C)-n4c(C)nnc43)C2)C(C)(C)C)cc1 [Example 182] gave Emax of 100%

response.value for Cc1ncsc1-c1ccc(CNC(=O)[C@@H]2C[C@@H](O)CN2C(=O)[C@@H](c2cc(Oc3ccc(O[C@H]4C[C@@H](NC(=O)C[C@@H]5N=C(c6ccc(Cl)cc6)c6c(sc(C)c6C)-n6c(C)nnc65)C4)nc3)no2)C(C)C)cc1 [Example 325] (field: Emax) = 81.5%

* * *

# Tested on: c-myc in 22RV-1 cells
# assay protocol: Human c-myc ELISA assay
# Assay type: cell-based
# protocol conditions: Homo sapiens, 22Rv1, 18 h, read-out: Degradation of BRD4: Maximum inhibition (%) c-Myc ELISA in 22RV1 cells
reported metric: Emax (%)
# output: bare number, implied unit %

Note to self: Emax recorded for "Cc1ncsc1-c1ccc(CNC(=O)[C@@H]2C[C@@H](O)CN2C(=O)[C@@H](NC(=O)Cc2ccc(N3CC[C@H](NC(=O)C[C@@H]4N=C(c5ccc(Cl)cc5)c5c(sc(C)c5C)-n5c(C)nnc54)C3)cn2)C(C)(C)C)cc1" was 74.2

Short answer for "Cc1ncsc1-c1ccc([C@H](C)NC(=O)[C@@H]2C[C@@H](O)CN2C(=O)[C@@H](NC(=O)/C=C/c2cc(F)cc(O[C@@H](C)CNC(=O)C[C@@H]3N=C(c4ccc(Cl)cc4)c4c(sc(C)c4C)-n4c(C)nnc43)c2)C(C)(C)C)cc1" : Emax was 94.1

Field Emax (entry "Cc1ncsc1-c1ccc(CNC(=O)[C@@H]2C[C@@H](O)CN2C(=O)[C@@H](NC(=O)COCCCCOCCCOc2ccc(NC(=O)C[C@@H]3N=C(c4ccc(Cl)cc4)c4c(sc(C)c4C)-n4c(C)nnc43)cc2)C(C)(C)C)cc1" ) reads 100

Lab note: measured Emax of "CCc1nnc2n1-c1sc(C)c(C)c1C(c1ccc(Cl)cc1)=N[C@H]2CC(=O)Nc1ccc(OCCCOCCCOCC(=O)N[C@H](C(=O)N2C[C@H](O)C[C@H]2C(=O)NCc2ccc(-c3scnc3C)cc2)C(C)(C)C)cc1" was 89
